Experiment: HILIC, Merck SeQuant ZIC-HILIC, 25 °C, 0.25 mL/min; A: water + 16 mM ammonium formate; B: acetonitrile + 0.1% formic acid, pH 3; gradient (min/%B) 0/97 2/97 10/70 15/10 17/10 18/97 25/97
Details: stereoisomer not certain
Kindly supply the reported LC retention time values for the records listed here.
The reply should read as a number followed by its unit.

Consider the following illustrative entries.
CC(CCCC(C)(C)O)C1CCC2C3CC=C4CC(O)CCC4(C)C3CCC12C (stereo not given) [25-HYDROXYCHOLESTEROL]
1.6 min
O=C(O)c1cncc(O)c1 [5-Hydroxynicotinic acid]
6.4 min
CC(=O)N[C@@H]1[C@@H](O)[C@H](O)[C@@H](CO)O[C@H]1N
14.5 min

Batch request: LC retention time per item, same order as input.
1. c1ccc2ncccc2c1
2. O=C(O)C(=O)CO [HYDROXYPYRUVATE]
3. Cc1cn(C2CC(O)C(COP(=O)(O)OP(=O)(O)OC3OC(CO)C(O)C(O)C3O)O2)c(=O)[nH]c1=O (stereo not given)
4. NC(CS(=O)O)C(=O)O (stereo not given)
5. NC(CSSCC(N)C(=O)O)C(=O)O (stereo not given)
6. O=C(O)c1cc(=O)c2cccc(O)c2[nH]1 [XANTHURENATE]
7. COc1cc(CCN)ccc1O
8. CC(=O)Oc1cccc(O)c1 [RESORCINOL MONOACETATE]

Reply text:
["2.14 min", "13.3 min", "14.4 min", "14.4 min", "15.4 min", "10.4 min", "11 min", "1.71 min"]

---

Experiment: HILIC, Merck SeQuant ZIC-HILIC, 25 °C, 0.25 mL/min; A: water + 16 mM ammonium formate; B: acetonitrile + 0.1% formic acid, pH 3; gradient (min/%B) 0/97 2/97 10/70 15/10 17/10 18/97 25/97
Conditions: stereoisomer not certain
Under this convention, MET denotes LC retention time strictly below 2 min and NOT MET denotes LC retention time at or above 2 min.

These solved cases illustrate the format of a correct answer.
O=CC[C@@H](O)[C@H](O)[C@H](O)CO [2-DEOXY-D-GLUCOSE]
NOT MET
Oc1cc(O)c2c(c1)OC(c1ccc(O)c(O)c1)C(O)C2 (single isomer, unassigned; (+)) [(+)-Catechin hydrate]
NOT MET

Inquiry: A record lists Cc1cc2nc3[nH]c(=O)[nH]c(=O)c3nc2cc1C [LUMICHROME] . Is its LC retention time below 2 min?
Reply text: MET

Inquiry: Item Nc1ncnc2c1ncn2C1OC(COP(=O)(O)OP(=O)(O)OP(=O)(O)O)C(O)C1O (stereo unspecified) [ADENOSINE TRIPHOSPHATE] : LC retention time beneath 2 min, strictly?
Reply text: NOT MET

Inquiry: I wonder whether COC1=C(OC)C(=O)C(CC=C(C)CCC=C(C)C)=C(C)C1=O [coenzyme Q2] has LC retention time below 2 min. Can you tell?
Reply text: MET

Inquiry: Is 2 min strictly greater than the molecule's reported LC retention time? molecule: Nc1nc2c(ncn2C2OC(COP(=O)(O)OP(=O)(O)OC3OC(CO)C(O)C(O)C3O)C(O)C2O)c(=O)[nH]1 (stereo unspecified) [GUANOSINE DIPHOSPHATE MANNOSE]
Reply text: NOT MET

Inquiry: API: query returns whether the molecule falls strictly under 2 min in LC retention time. Query: C=Cc1c(C)c2cc3[nH]c(cc4nc(cc5nc(cc1[nH]2)C(C)=C5CCC(=O)O)C(CCC(=O)O)=C4C)c(C)c3C=C [PROTOPORPHYRIN]
Reply text: MET

Inquiry: I'd appreciate it if you could check whether CCOC(=O)CCNC(N)=O [ETHYL 3-UREIDOPROPIONATE] has LC retention time smaller than 2 min.
Reply text: NOT MET
